Recorded measurements of EC50, one per entry
Test System: PGI2 receptor (Homo sapiens)
Construct: host or cells: thawed 'PGI2 cell' suspension
Test Summary: PGI2 cAMP cell assay in vitro (HTRF cAMP)
Format: cell-based
Condition Notes: cells in vitro

O=C(O)COCC1(F)CCN(c2cncc(N(c3ccccc3)C3CCCCC3)n2)CC1 ... 34.2 nM
O=C(O)COCC1CCN(c2cncc(N(c3ccccc3)c3ccc(F)cc3)n2)CC1 ... 2.09 nM

Task: Look up PGI2 receptor (Homo sapiens) data: EC50 of `O=C(O)COCC1CCN(c2cccc(N(c3ccccc3)c3ccccc3)n2)CC1` , then report it.
Output: > 2000 nM

---

Test System: PGI2 receptor (Homo sapiens, UniProt P43119)
Construct: host or cells: thawed 'PGI2 cell' suspension
Sequence (P43119 whole entry, species assumed): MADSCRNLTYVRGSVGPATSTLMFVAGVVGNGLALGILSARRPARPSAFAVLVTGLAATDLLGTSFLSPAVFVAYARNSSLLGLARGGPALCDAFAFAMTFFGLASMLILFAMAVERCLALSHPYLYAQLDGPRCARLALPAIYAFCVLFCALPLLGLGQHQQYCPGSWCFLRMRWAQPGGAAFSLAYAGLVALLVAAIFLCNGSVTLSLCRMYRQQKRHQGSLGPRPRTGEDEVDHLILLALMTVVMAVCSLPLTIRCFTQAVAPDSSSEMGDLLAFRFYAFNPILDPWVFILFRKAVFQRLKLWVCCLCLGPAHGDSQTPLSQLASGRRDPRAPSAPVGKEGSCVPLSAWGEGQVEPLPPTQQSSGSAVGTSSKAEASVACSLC
Test Summary: PGI2 cAMP cell assay in vitro (HTRF cAMP)
Assay type: cell-based
Condition Notes: cells in vitro
Recorded measurements of EC50, one per entry
Number in nM, nothing else.

Before answering, review these 5 worked examples.
O=C(O)COCC1(F)CCN(c2cncc(N(c3cccc(F)c3)c3ccccn3)n2)CC1 [Compound 27] ... 6.74
COc1cccc(N(c2ccccc2)c2cncc(N3CCC(COCC(=O)O)CC3)n2)c1 [Compound 7] ... 2.12
O=C(O)COCC1(F)CCN(c2cncc(N(c3ccccc3)c3cccc(OC(F)F)c3)n2)CC1 [Compound 21] ... 3
O=C(O)COCC1CCN(c2cncc(N(c3ccccc3)c3cccc(OC(F)F)c3)n2)CC1 [Compound 14] ... 9.65
O=C(O)COCC1(F)CCN(c2cncc(C(O)(c3ccccc3)c3ccccc3)n2)CC1 [Compound 49] ... 81

Task: Specify reported EC50 for the molecule shown: O=C(O)COCC1CCN(c2cncc(N(c3ccccc3)c3cccc(OC(F)(F)F)c3)n2)CC1 [Compound 8]
Output: 38

Task: Specify reported EC50 for the molecule shown: O=C(O)COCC1CCN(c2cncc(N(c3ccccc3)c3cc(F)cc(F)c3)n2)CC1 [Compound 11]
Output: 123

Task: Specify reported EC50 for the molecule shown: O=C(O)COCC1CCN(c2cncc(N(c3ccccc3)c3ccc(Cl)cc3)n2)CC1 [Compound 1]
Output: 2.02

---

Test System: PGI2 receptor (Homo sapiens, UniProt P43119)
Construct: host or cells: thawed 'PGI2 cell' suspension
Test Summary: PGI2 cAMP cell assay in vitro (HTRF cAMP)
Assay type: cell-based
Condition Notes: cells in vitro
Endpoint Label: EC50 (nM)
Number in nM, nothing else.

Before answering, review these 3 worked examples.
O=C(O)COC[C@H]1CC[C@H](c2cncc(N(c3ccccc3)c3ccccc3)n2)CC1 [Compound 48b] ... 3.72
O=C(O)COCC1(F)CCN(c2cncc(N(c3ccccc3)c3nccs3)n2)CC1 ... 20.1
O=C(O)COCC1(F)CCN(c2cncc(N(c3ccccc3)c3ccc(OC(F)F)cc3)n2)CC1 ... 1.65

Now take the following compound into account.
Task: Specify reported EC50 for the compound shown: `O=C(O)COCC1(F)CCN(c2cncc(N(c3ccccc3)c3ccccn3)n2)CC1`
Output: 3.26

---

Test System: PGI2 receptor (Homo sapiens)
Construct: host or cells: thawed 'PGI2 cell' suspension
Test Summary: PGI2 cAMP cell assay in vitro (HTRF cAMP)
Format: cell-based
Condition Notes: cells in vitro
Procedure: PGI2 cAMP Cell Assay In Vitro: A series of cells were placed in a 37° C. water bath for rapid thawing, and the cell suspension was transferred to a 15 mL centrifuge tube containing 10 mL HBSS, and mixed uniformly. […] The centrifuge tube was tapped gently to suspend the cells after centrifugation, then the cells were re-suspended with 10 mL HBSS (Hanks buffered saline solution) and mixed uniformly by pipetting up and down. The cells were counted by Vi-cell. […]
Endpoint Label: log10 EC50 (log10 of the value in nM)
Record value = log10 of EC50 given in nM.

O=C(O)COCC1(F)CCN(c2cncc(N(c3ccccc3)c3cccc(F)c3)n2)CC1 [Compound 22] ... -0.66
COc1ccc(N(c2ccccc2)c2cncc(N3CCC(F)(COCC(=O)O)CC3)n2)nc1 [Compound 34] ... 0.28
CS(=O)(=O)NC(=O)COCC1(F)CCN(c2cncc(N(c3ccccc3)c3ccc(F)cn3)n2)CC1 [Compound 33] ... 2.07

Task: Specify reported log10 EC50 for the compound shown: O=C(O)COCC1(F)CCN(c2cncc(C(c3ccccc3)c3ccccc3)n2)CC1 [Compound 50]
Output: 0.73

Task: Specify reported log10 EC50 for the compound shown: O=C(O)COCC1(F)CCN(c2cncc(N(c3cccc(Cl)c3)c3ccccn3)n2)CC1 [Compound 28]
Output: 0.34

Task: Specify reported log10 EC50 for the compound shown: O=C(O)COCC1CCN(c2cncc(N(c3ccccc3)c3ccc(F)c(F)c3)n2)CC1 [Compound 10]
Output: 1.01

Task: Specify reported log10 EC50 for the compound shown: O=C(O)COCC1(F)CCN(c2cncc(N(c3ccc(Cl)cc3)c3ccccn3)n2)CC1 [Compound 41]
Output: 0.47

Task: Specify reported log10 EC50 for the compound shown: COc1ccc(N(c2ccccc2)c2cncc(N3CCC(F)(COCC(=O)O)CC3)n2)cc1 [Compound 23]
Output: 0.04

Value source: patent US11299475B2
